Tested on: six strains of SARS-COV-2
Experiment: qRT-PCR assay, summary over six strains and two cell types
Format: cell-based
Conditions: Severe acute respiratory syndrome coronavirus 2; qRT-PCR assay; mean over six strains and two cell types; read-out: EC50, mean
property: pEC50
Give only the number. pEC50 is defined as minus log10 of concentration in molar units.

Data request: Name the recorded pEC50 of the compound listed here: Cn1cc(-c2cccc3cc(C(=O)NC(=N)N)ccc23)cn1 [BIT225]
Data returned: 5.43

* * *

Test system: SARS-COV-2 Japan/TY7-503/2021-Brazil_P.1 (NR-54982)
Experiment: plaque assay of infectious virus released into culture medium, Vero cells
Format: cell-based
Conditions: Severe acute respiratory syndrome coronavirus 2, virus BR, m.o.i 0.1, BIT225 added 1 hour pre-infection, 4 days post infection
property: EC50 (µM)
Could you give me the number in µM? Just the number is fine.

Data request: Name the recorded EC50 of the molecule listed here: Cn1cc(-c2cccc3cc(C(=O)NC(=N)N)ccc23)cn1
Data returned: 6.36
